Protein target, amino acids: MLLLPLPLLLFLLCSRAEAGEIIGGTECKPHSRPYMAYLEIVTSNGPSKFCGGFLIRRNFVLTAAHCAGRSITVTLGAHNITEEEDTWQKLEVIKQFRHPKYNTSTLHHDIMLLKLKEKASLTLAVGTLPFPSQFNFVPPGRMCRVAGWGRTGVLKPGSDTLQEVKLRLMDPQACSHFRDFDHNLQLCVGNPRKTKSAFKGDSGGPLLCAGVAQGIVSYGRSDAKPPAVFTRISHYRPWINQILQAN
pKi: −log10 of the molar value.
Field pKi: reported value for the protein given by its sequence; entries drawn from several documents.

>  <Molecule>
CC(C)[C@H](NS(C)(=O)=O)C(=O)N1CCC[C@H]1C(=O)NC(Cc1ccccc1)C(=O)C(F)(F)C(=O)Nc1cccc(C(=O)O)c1 (stereo not given in full)

>  <System Under Test>
the protein given by its sequence

>  <Value Qualifier>
=

>  <pKi>
7.78

$$$$
>  <Molecule>
CC(C)[C@H](NC(=O)OC(C)(C)C)C(=O)N1CCC[C@H]1C(=O)NC(Cc1ccccc1)C(=O)C(F)(F)C(=O)NCc1ccccc1 (mixture of isomers; form 2)

>  <System Under Test>
the protein given by its sequence

>  <Value Qualifier>
=

>  <pKi>
7.03

$$$$
>  <Molecule>
CC(C)(C)OC(=O)NC(CC(=O)O)C(=O)N1CCC[C@H]1C(=O)NC(Cc1ccccc1)C(=O)C(F)(F)C(=O)Nc1cccc(C(=O)O)c1 (stereo not given in full)

>  <System Under Test>
the protein given by its sequence

>  <Value Qualifier>
=

>  <pKi>
7.44

$$$$
>  <Molecule>
CC(C)[C@H](NC(=O)OC(C)(C)C)C(=O)N1CCC[C@H]1C(=O)NC(Cc1ccccc1)C(=O)C(F)(F)C(=O)Nc1ccc(C(=O)O)cc1 (stereo not given in full)

>  <System Under Test>
the protein given by its sequence

>  <Value Qualifier>
=

>  <pKi>
8.17

$$$$
>  <Molecule>
Cc1cccc(-c2ncc(N)c(=O)n2CC(=O)NC(Cc2ccccc2)C(=O)C(F)(F)C(=O)NCC(=O)O)c1 (stereo not given)

>  <System Under Test>
the protein given by its sequence

>  <Value Qualifier>
=

>  <pKi>
7.77

$$$$
>  <Molecule>
CC(C)(C)OC(=O)NC(CCC(=O)O)C(=O)N1CCC[C@H]1C(=O)NC(Cc1ccccc1)C(=O)C(F)(F)C(=O)Nc1cccc(C(=O)O)c1 (stereo not given in full)

>  <System Under Test>
the protein given by its sequence

>  <Value Qualifier>
=

>  <pKi>
8.41

$$$$
>  <Molecule>
CC(C)[C@H](NC(=O)OC(C)(C)C)C(=O)N1CCC[C@H]1C(=O)NC(Cc1ccccc1)C(=O)C(F)(F)C(=O)NC(Cc1ccccc1)C(=O)O (stereo not given in full)

>  <System Under Test>
the protein given by its sequence

>  <Value Qualifier>
=

>  <pKi>
7.52

$$$$
>  <Molecule>
CC(C)[C@H](NC(=O)OC(C)(C)C)C(=O)N1CCC[C@H]1C(=O)NC(Cc1ccccc1)C(=O)C(F)(F)C(=O)NC(CCC(=O)O)C(=O)O (stereo not given in full)

>  <System Under Test>
the protein given by its sequence

>  <Value Qualifier>
=

>  <pKi>
6.00

$$$$
>  <Molecule>
CC(C)(C)OC(=O)NC(CCC(=O)O)C(=O)N1CCC[C@H]1C(=O)NC(Cc1ccccc1)C(=O)C(F)(F)C(=O)Nc1cccc(S(N)(=O)=O)c1 (stereo not given in full)

>  <System Under Test>
the protein given by its sequence

>  <Value Qualifier>
=

>  <pKi>
7.56

$$$$
>  <Molecule>
CC(C)[C@H](NC(=O)OC(C)(C)C)C(=O)N1CCC[C@H]1C(=O)NC(Cc1ccccc1)C(=O)C(F)(F)C(=O)Nc1cccc(C(=O)O)c1 (stereo not given in full)

>  <System Under Test>
the protein given by its sequence

>  <Value Qualifier>
=

>  <pKi>
8.25

$$$$
>  <Molecule>
Nc1cnc(-c2ccncc2)n(CC(=O)NC(Cc2ccccc2)C(=O)C(F)(F)C(=O)NCc2ccccc2)c1=O (stereo not given)

>  <System Under Test>
the protein given by its sequence

>  <Value Qualifier>
=

>  <pKi>
7.07

$$$$
>  <Molecule>
CNC(=O)C(F)(F)C(=O)C(Cc1ccccc1)NC(=O)Cn1c(-c2cccc(C)c2)ncc(N)c1=O (stereo not given)

>  <System Under Test>
the protein given by its sequence

>  <Value Qualifier>
=

>  <pKi>
7.04

$$$$
>  <Molecule>
CC(C)[C@H](NC(=O)OC(C)(C)C)C(=O)N1CCC[C@H]1C(=O)NC(Cc1ccccc1)C(=O)C(F)(F)C(=O)Nc1ccccc1 (stereo not given in full)

>  <System Under Test>
the protein given by its sequence

>  <Value Qualifier>
=

>  <pKi>
7.79

$$$$
>  <Molecule>
COC(=O)c1ccc2oc(C(=O)[C@H](Cc3ccccc3)NC(=O)Cn3c(-c4cccc(OC)c4)ncc(N)c3=O)nc2c1

>  <System Under Test>
the protein given by its sequence

>  <Value Qualifier>
=

>  <pKi>
8.32

$$$$
>  <Molecule>
Cc1cccc(-c2ncc(N)c(=O)n2CC(=O)NC(Cc2ccccc2)C(=O)C(F)(F)C(=O)NCC(=O)N2CCCCCC2)c1 (stereo not given)

>  <System Under Test>
the protein given by its sequence

>  <Value Qualifier>
=

>  <pKi>
8.45

$$$$
>  <Molecule>
CC(C)(C)OC(=O)NC(CCC(=O)O)C(=O)N1CCC[C@H]1C(=O)NC(Cc1ccccc1)C(=O)C(F)(F)C(=O)Nc1cc(C(=O)O)cs1 (stereo not given in full)

>  <System Under Test>
the protein given by its sequence

>  <Value Qualifier>
=

>  <pKi>
8.22

$$$$
>  <Molecule>
CC(C)[C@H](NC(=O)OC(C)(C)C)C(=O)N1CCC[C@H]1C(=O)NC(Cc1ccccc1)C(=O)C(F)(F)C(=O)NCC(=O)OCc1ccccc1 (stereo not given in full)

>  <System Under Test>
the protein given by its sequence

>  <Value Qualifier>
=

>  <pKi>
7.90

$$$$
>  <Molecule>
COC(=O)CNC(=O)C(F)(F)C(=O)C(Cc1ccccc1)NC(=O)Cn1c(-c2cccc(C)c2)ncc(N)c1=O (stereo not given)

>  <System Under Test>
the protein given by its sequence

>  <Value Qualifier>
=

>  <pKi>
7.99

$$$$
>  <Molecule>
COc1cccc(-c2ncc(N)c(=O)n2CC(=O)NC(Cc2ccccc2)C(=O)C(F)(F)C(=O)NCc2ccccc2)c1 (stereo not given)

>  <System Under Test>
the protein given by its sequence

>  <Value Qualifier>
=

>  <pKi>
7.86

$$$$
>  <Molecule>
CCCCNS(=O)(=O)c1cccc(NC(=O)C(F)(F)C(=O)C(Cc2ccccc2)NC(=O)[C@@H]2CCCN2C(=O)C(CCC(=O)O)NC(=O)OC(C)(C)C)c1 (stereo not given in full)

>  <System Under Test>
the protein given by its sequence

>  <Value Qualifier>
=

>  <pKi>
7.64

$$$$
>  <Molecule>
CC(C)(C)OC(=O)NC(CCC(=O)O)C(=O)N1CCC[C@H]1C(=O)NC(Cc1ccccc1)C(=O)C(F)(F)C(=O)Nc1cc(C(=O)O)c2ccccc2c1 (stereo not given in full)

>  <System Under Test>
the protein given by its sequence

>  <Value Qualifier>
=

>  <pKi>
7.85

$$$$
>  <Molecule>
CCCCCNC(=O)C(F)(F)C(=O)C(Cc1ccccc1)NC(=O)Cn1c(-c2cccc(C)c2)ncc(N)c1=O (stereo not given)

>  <System Under Test>
the protein given by its sequence

>  <Value Qualifier>
=

>  <pKi>
7.73

$$$$
>  <Molecule>
Cc1cccc(-c2ncc(N)c(=O)n2CC(=O)NC(Cc2ccccc2)C(=O)C(F)(F)C(=O)NCc2cccnc2)c1 (stereo not given)

>  <System Under Test>
the protein given by its sequence

>  <Value Qualifier>
=

>  <pKi>
7.54

$$$$
>  <Molecule>
Cc1cccc(-c2ncc(N)c(=O)n2CC(=O)NC(Cc2ccccc2)C(=O)C(F)(F)C(=O)O)c1 (stereo not given)

>  <System Under Test>
the protein given by its sequence

>  <Value Qualifier>
<

>  <pKi>
5.00

$$$$
>  <Molecule>
CC(NC(=O)C(F)(F)C(=O)C(Cc1ccccc1)NC(=O)[C@@H]1CCCN1C(=O)[C@@H](NC(=O)OC(C)(C)C)C(C)C)C(=O)O (stereo not given in full)

>  <System Under Test>
the protein given by its sequence

>  <Value Qualifier>
=

>  <pKi>
7.18

$$$$
>  <Molecule>
CC(=O)N[C@H](C(=O)N1CCC[C@H]1C(=O)NC(Cc1ccccc1)C(=O)C(F)(F)C(=O)Nc1cccc(C(=O)O)c1)C(C)C (stereo not given in full)

>  <System Under Test>
the protein given by its sequence

>  <Value Qualifier>
=

>  <pKi>
8.15

$$$$
>  <Molecule>
Nc1cnc(-c2ccccc2)n(CC(=O)NC(Cc2ccccc2)C(=O)C(F)(F)C(=O)NCc2ccccc2)c1=O (stereo not given)

>  <System Under Test>
the protein given by its sequence

>  <Value Qualifier>
=

>  <pKi>
7.49

$$$$
>  <Molecule>
CC(C)[C@H](NC(=O)OC(C)(C)C)C(=O)N1CCC[C@H]1C(=O)NC(Cc1ccccc1)C(=O)C(F)(F)C(=O)Nc1ccccc1C(=O)O (stereo not given in full)

>  <System Under Test>
the protein given by its sequence

>  <Value Qualifier>
=

>  <pKi>
5.44

$$$$
>  <Molecule>
Cc1cccc(-c2ncc(N)c(=O)n2CC(=O)NC(Cc2ccccc2)C(=O)C(F)(F)C(N)=O)c1 (stereo not given)

>  <System Under Test>
the protein given by its sequence

>  <Value Qualifier>
=

>  <pKi>
7.88

$$$$
>  <Molecule>
CCN(CC)C(=O)CCNC(=O)C(F)(F)C(=O)C(Cc1ccccc1)NC(=O)Cn1c(-c2cccc(C)c2)ncc(N)c1=O (stereo not given)

>  <System Under Test>
the protein given by its sequence

>  <Value Qualifier>
=

>  <pKi>
7.47

$$$$
